- Tested on: Na+ channels
- Test method notes: 22Na+ influx into SK-N-SH neuroblastoma cells under veratridine stimulation
- Format: cell-based
- Measurement parameters: human SK-N-SH cells, veratridine-induced influx, 10 min at 37° C.; read-out: 22Na influx IC50
# IC50 values compiled below

- Molecule: "COc1cccc2c1CCC1(CCN(CC3CCC3)CC1)C2=O"
  Output unit: "nM"
  IC50: 3400
- Molecule: "COc1ccc2c(c1)CCC1(CCN(CCCc3ccccc3)CC1)C2=O"
  Output unit: "nM"
  IC50: 600
- Molecule: "O=C1c2ccccc2CCC12CCN(CCC(c1ccccc1)c1ccccc1)CC2"
  Output unit: "nM"
  IC50: 970
- Molecule: "O=C1c2ccccc2CCC12CCN(C/C=C/c1ccccc1)CC2"
  Output unit: "nM"
  IC50: 940
- Molecule: "COc1ccc2c(c1)CCC1(CCN(CCC3CC3)CC1)C2=O"
  Output unit: "nM"
  IC50: 4300
